Target: human glucagon receptor (human) (UniProt P47871)
Sequence (P47871 26-477): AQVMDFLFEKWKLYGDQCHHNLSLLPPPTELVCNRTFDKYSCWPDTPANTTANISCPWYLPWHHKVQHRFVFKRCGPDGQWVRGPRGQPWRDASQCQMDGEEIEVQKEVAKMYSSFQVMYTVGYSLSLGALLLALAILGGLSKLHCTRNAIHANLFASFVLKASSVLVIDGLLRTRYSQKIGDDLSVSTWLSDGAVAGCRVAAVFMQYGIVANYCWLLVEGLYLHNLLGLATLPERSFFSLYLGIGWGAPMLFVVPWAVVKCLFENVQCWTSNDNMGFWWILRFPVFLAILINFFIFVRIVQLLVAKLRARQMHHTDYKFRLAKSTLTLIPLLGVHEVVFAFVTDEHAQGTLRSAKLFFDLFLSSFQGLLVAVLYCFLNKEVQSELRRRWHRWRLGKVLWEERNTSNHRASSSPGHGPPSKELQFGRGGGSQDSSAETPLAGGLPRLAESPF
Experiment: cell-based or functional assay
For each record, write down the corresponding cAMP Rel EC50 (receptor-expressing HEK-293 cells, 1% HSA).
Give bare numbers, in nM.

Binder: YXQGTXTSDXXIXLDXKAQXNFIEYLIEGGPSSGEPPPE (synthetic construct; SITE 2: note = 2-Aminoisobutyric Acid; SITE 6: note = alpha-methyl-2-fluoro-L-phenylalanine; SITE 10: note = 3-(4-Pyridyl)-L-alanine; SITE 11: note = alpha-methyl-L-serine; SITE 13: note = alpha-methyl-leucine; SITE 16: note = L-ornithine; SITE 17: note = Lysine is chemically mo) [Example 449]
Value measured: 424

Binder: YXQGTXTSDXXIXLDXKAQXXFIEYLLEGGPSSGEPPPE (synthetic construct; SITE 2: note = 2-Aminoisobutyric Acid; SITE 6: note = alpha-methyl-2-fluoro-L-phenylalanine; SITE 10: note = 3-(4-Pyridyl)-L-alanine; SITE 11: note = alpha-methyl-L-serine; SITE 13: note = alpha-methyl-leucine; SITE 16: note = L-ornithine; SITE 17: note = Lysine is chemically mo) [Example 460]
Value measured: 142

Binder: YXQGTXTSDXXIXLDXKAQXNFIEXLIEGGPSSGEPEPSEG (synthetic construct; SITE 2: note = 2-Aminoisobutyric Acid; SITE 6: note = alpha-methyl-2-fluoro-L-phenylalanine; SITE 10: note = 3-(4-Pyridyl)-L-alanine; SITE 11: note = alpha-methyl-L-serine; SITE 13: note = alpha-methyl-leucine; SITE 16: note = L-ornithine; SITE 17: note = Lysine is chemically mo) [Example 473]
Value measured: 311

Binder: YXQGTXTSDXXILLDKKAQXAFIEYLEEGGPSSGAPPPE (acylated Lys, C-terminal amide, non-natural residues; synthetic construct; SITE 2: note = 2-Aminoisobutyric Acid; SITE 6: note = alpha-methyl-2-fluoro-L-phenylalanine; SITE 10: note = 3-(3-Pyridyl)-L-alanine; SITE 11: note = alpha-methyl-L-serine; SITE 17: note = Lysine is chemically modified through conjugation of the epsilon-amino group of the Lysine) [Example 465]
Value measured: 233

Binder: YXQGTXTSDXXIXLDXKAQXNFIEXLIEGGPSSGEPEPEEG (synthetic construct; SITE 2: note = 2-Aminoisobutyric Acid; SITE 6: note = alpha-methyl-2-fluoro-L-phenylalanine; SITE 10: note = 3-(4-Pyridyl)-L-alanine; SITE 11: note = alpha-methyl-L-serine; SITE 13: note = alpha-methyl-leucine; SITE 16: note = L-ornithine; SITE 17: note = Lysine is chemically mo) [Example 474]
Value measured: 166

// next entry
Exam item: Consider the binder YXQGTXTSDXXIXLDXKAQXNFIEXLQEGGPSSGEPPPE (synthetic construct; SITE 2: note = 2-Aminoisobutyric Acid; SITE 6: note = alpha-methyl-2-fluoro-L-phenylalanine; SITE 10: note = 3-(4-Pyridyl)-L-alanine; SITE 11: note = alpha-methyl-L-serine; SITE 13: note = alpha-methyl-leucine; SITE 16: note = L-ornithine; SITE 17: note = Lysine is chemically mo) [Example 450] and give its measured cAMP Rel EC50 (receptor-expressing HEK-293 cells, 1% HSA).
Marked response: 553

Recorded values, source patent US20240270821A1.
